Would you kindly list TGI for each of these compounds?
test system: ACHN renal; experiment: NCI tumour cell line growth inhibition, 48 h

Name the recorded TGI for O=C1NC(=O)c2ccc([N+](=O)[O-])c3cccc1c23 .
33.7 µM

Name the recorded TGI for Cc1cn(C2OC(CO[Si](C)(C)C(C)(C)C)/C(=C\C#N)C2O[Si](C)(C)C(C)(C)C)c(=O)[nH]c1=O (centres undefined) .
> 100 µM

Name the recorded TGI for CC(=O)c1c(-c2ccc(Cl)cc2)c(-c2ccc(Cl)cc2)n[nH]c1=O .
66.1 µM

Name the recorded TGI for COc1nn(Cc2ccccn2)c2ccc([N+](=O)[O-])cc12 .
> 100 µM

Name the recorded TGI for NCCCC[C@@H]1NC(=O)[C@H]2CCCN2C(=O)[C@H](Cc2ccccc2)NC(=O)[C@H](Cc2ccccc2)CNC1=O .
> 100 µM

Name the recorded TGI for CCC(C)C(=O)OC1C(=O)OC2CC3C(C)=CC(=O)C(O)C3(C)C3C4(O)OCC23C1C(C)C4O (centres undefined) .
0.257 µM

Name the recorded TGI for O=C(CP(=O)(c1ccccc1)c1ccccc1)c1cccc(C(=O)CP(=O)(c2ccccc2)c2ccccc2)c1 .
> 100 µM

Name the recorded TGI for C[C@]12CCC(O)CC1=CC[C@@H]1[C@@H]2CC[C@]2(C)C(O)[C@H](n3ccnc3)C[C@@H]12 (some centres undefined) .
> 100 µM

Name the recorded TGI for COc1ccc(N2C(=O)C3c4[nH]c5ccc(C)cc5c4C4CCC(C(C)(C)C)CC4C3C2=O)cc1 (centres undefined) .
25.5 µM
